# Measured target: mouse HER2 (23-653) (Mus musculus)
# Assay info: Surface plasmon resonance (SPR) for assessment of peptide affinity, mouse HER2
# Format: binding
# Set-up: mouse HER2 (23-653) using a Cy5 labeled peptide as a probe; made in house
# Test settings: SPR, mouse HER2 extracellular domain, 25° C., 1:1 binding model; read-out: moHER2-SPR-ONC KD
Counter-ions that a name gives are not always drawn. Starred links: 1 amine or outer side, 2 acyl side, 3 side chain; linkers in the order of their positions; H or OH if unused. Positions of bridges follow the written chain, without caps; N, C: chain ends. Non-standard residues stand in square brackets, D forms with d. Residues, ends and D or L forms follow the SMILES beside them. Trp(5-OH) = N[C@@H](Cc1c[nH]c2ccc(O)cc12)C(=O)O; NMePhe(4-F) = CN[C@@H](Cc1ccc(F)cc1)C(=O)O; NMehPhe = CN[C@@H](CCc1ccccc1)C(=O)O; Aad = N[C@@H](CCCC(=O)O)C(=O)O; Gly(cPr) = N[C@H](C(=O)O)C1CC1; NMehCys = CN[C@@H](CCS)C(=O)O; NMeDab = CN[C@@H](CCN)C(=O)O; NMeK = CN[C@@H](CCCCN)C(=O)O; NMeDap = CN[C@@H](CN)C(=O)O; NMeC = CN[C@@H](CS)C(=O)O; NMeS = CN[C@@H](CO)C(=O)O; hCys = N[C@@H](CCS)C(=O)O; Dap = NC[C@H](N)C(=O)O; X5 = O=C(C[*:2])[*:1]
Reported pKd values follow for various molecules
To interpret pKd, take it as minus log10 of a concentration measured in moles per litre.

Before answering, review these 3 worked examples.
{"Molecule": "CC(=O)NCCCC[C@H]1C(=O)N[C@@H](Cc2c[nH]c3ccc(O)cc23)C(=O)N[C@@H](Cc2c[nH]c3ccccc23)C(=O)N[C@@H](C2CC2)C(=O)N(C)[C@H](C(=O)N(C)[C@@H](Cc2ccc(F)cc2)C(N)=O)CNC(=O)CCC[C@H](NC(C)=O)C(=O)N[C@@H](Cc2ccc(O)cc2)C(=O)N[C@@H](CO)C(=O)N(C)[C@@H](CCc2ccccc2)C(=O)N1C [Example A5] (Ac-[Aad]YS[NMehPhe][NMeK](Ac)[Trp(5-OH)]W[Gly(cPr)][NMeDap][NMePhe(4-F)]-NH2; lactam 1-9)", "Measurement label": "pKd", "Reported value": 9.22}
{"Molecule": "CC(=O)NCCCC[C@H]1C(=O)N[C@@H](Cc2c[nH]c3ccc(O)cc23)C(=O)N[C@@H](Cc2c[nH]c3ccccc23)C(=O)N[C@@H](C2CC2)C(=O)N(C)[C@H](C(=O)N(C)[C@@H](Cc2ccc(F)cc2)C(N)=O)CCSSCC[C@H](N)C(=O)N[C@@H](Cc2ccc(O)cc2)C(=O)N[C@@H](CO)C(=O)N(C)[C@@H](CCc2ccccc2)C(=O)N1C [Example A55, TFA salt] (H-[hCys]YS[NMehPhe][NMeK](Ac)[Trp(5-OH)]W[Gly(cPr)][NMehCys][NMePhe(4-F)]-NH2; disulfide 1-9)", "Measurement label": "pKd", "Reported value": 6.83}
{"Molecule": "CC(=O)N[C@H]1CC(=O)NC[C@@H](C(=O)N(C)[C@@H](Cc2ccc(F)cc2)C(N)=O)N(C)C(=O)[C@H](C2CC2)NC(=O)[C@H](Cc2c[nH]c3ccccc23)NC(=O)[C@H](Cc2c[nH]c3ccc(O)cc23)NC(=O)[C@H](CO)N(C)C(=O)[C@H](CCc2ccccc2)N(C)C(=O)[C@H](CO)NC(=O)[C@H](Cc2ccc(O)cc2)NC1=O [Example A28] (Ac-DYS[NMehPhe][NMeS][Trp(5-OH)]W[Gly(cPr)][NMeDap][NMePhe(4-F)]-NH2; lactam 1-9)", "Measurement label": "pKd", "Reported value": 6.38}

Given CC(=O)N[C@H]1CNC(=O)CSC[C@@H](C(=O)N(C)[C@@H](Cc2ccc(F)cc2)C(N)=O)N(C)C(=O)[C@H](C2CC2)NC(=O)[C@H](Cc2c[nH]c3ccccc23)NC(=O)[C@H](Cc2c[nH]c3ccc(O)cc23)NC(=O)[C@H](CO)N(C)C(=O)[C@H](CCc2ccccc2)N(C)C(=O)[C@H](CO)NC(=O)[C@H](Cc2ccc(O)cc2)NC1=O [Example A50] (Ac-[Dap]YS[NMehPhe][NMeS][Trp(5-OH)]W[Gly(cPr)][NMeC][NMePhe(4-F)]-NH2; linker 1-9 via X5) , state its recorded pKd. 6.91

Given CN1C(=O)[C@H](CO)NC(=O)[C@H](Cc2ccc(O)cc2)NC(=O)[C@@H](N)CSSC[C@@H](C(=O)N(C)[C@@H](Cc2ccc(F)cc2)C(N)=O)N(C)C(=O)[C@H](C2CC2)NC(=O)[C@H](Cc2c[nH]c3ccccc23)NC(=O)[C@H](Cc2c[nH]c3ccc(O)cc23)NC(=O)[C@H](CO)N(C)C(=O)[C@@H]1CCc1ccccc1 [Example A54, TFA salt] (H-CYS[NMehPhe][NMeS][Trp(5-OH)]W[Gly(cPr)][NMeC][NMePhe(4-F)]-NH2; disulfide 1-9) , state its recorded pKd. 5.28

Given CC(=O)N[C@H]1CCC(=O)NC[C@@H](C(=O)N(C)[C@@H](Cc2ccc(F)cc2)C(N)=O)NC(=O)[C@H](C2CC2)NC(=O)[C@H](Cc2c[nH]c3ccccc23)NC(=O)[C@H](Cc2c[nH]c3ccc(O)cc23)NC(=O)[C@H](CO)N(C)C(=O)[C@H](CCc2ccccc2)N(C)C(=O)[C@H](CO)NC(=O)[C@H](Cc2ccc(O)cc2)NC1=O [Example A12] , state its recorded pKd. 6.06

Given CC(=O)N[C@H]1CC(=O)NCC[C@@H](C(=O)N(C)[C@@H](Cc2ccc(F)cc2)C(N)=O)N(C)C(=O)[C@H](C2CC2)NC(=O)[C@H](Cc2c[nH]c3ccccc23)NC(=O)[C@H](Cc2c[nH]c3ccc(O)cc23)NC(=O)[C@H](CO)N(C)C(=O)[C@H](CCc2ccccc2)N(C)C(=O)[C@H](CO)NC(=O)[C@H](Cc2ccc(O)cc2)NC1=O [Example A9] (Ac-DYS[NMehPhe][NMeS][Trp(5-OH)]W[Gly(cPr)][NMeDab][NMePhe(4-F)]-NH2; lactam 1-9) , state its recorded pKd. 6.61
